FYI, the data here is from patent US6869955B2.

Quick reference: melting point of the listed items.

Field: example entries. Status: answers known.
CCCCN(CC)c1nc(C)nc2c1NC(=S)CN2c1ccc(C(C)C)cc1Br [Example 131]	148 to 149 °C
CCCCN(CC)c1nc(C)nc2c1NC(=O)CN2c1ccc(C(C)C)cc1Br [Example 1]	146 to 147 °C
CCCCN1C(=O)CN2C(=O)CN(c3ccc(C(C)C)cc3Br)c3nc(C)nc1c32 [Example 501]	207 to 208 °C

Now examine the next entry.
Challenge: Supply recorded melting point for Cc1nc(-c2ccccc2C(F)(F)F)c2c(n1)N(c1ccc(C(C)C)cc1Br)CC(=O)N2 [Example 17] here.
Response given: 238 to 239 °C
